- studyTarget: human GLP-1 receptor (human, UniProt P43220 24-463)
- experimentSummary: cell-based or functional assay
Entries and their hGLP1R cAMP EC50 ratio
Quick one: just the number, no unit, thanks!

Solved entries:
YXEGTFTSDYSILLDKKAQXAFIXYLIEGGPSSGAPPPS (Aib2; K17((2-[2-(2-Amino-ethoxy)-ethoxy]-acetyl)2-(γ-Glu)-CO-(CH2)18-CO2H); Aib20; D-Glu24; C-terminal NH2) [Example 84] :: 0.173
YXEGTFTSDYXILLDKKAQXAFIEYLIEGGPSSGAPPPS (Aib2; D-Ser11; K17((2-[2-(2-Amino-ethoxy)-ethoxy]-acetyl)2-(γ-Glu)-CO-(CH2)18-CO2H); Aib20; C-terminal NH2) [Example 81] :: 0.063

Consider the additional binder presented here.
Given the binder YXEGTXTSDXSIXLDXKAQXEFIXXLIEGGPSSGAPPPS (Aib2; αMeF(2F)6; 4Pal10; αMeL13; Orn16; K17((2-[2-(2-Amino-ethoxy)-ethoxy]-acetyl)2-(γ-Glu)-CO-(CH2)16-CO2H); Aib20; D-Glu24; αMeY25; C-terminal NH2) [Example 4] , write its reported hGLP1R cAMP EC50 ratio.
1.41

Just for reference, patent US20220048967A1 is where these values come from.
